- measured.on: EP300 (Homo sapiens, UniProt Q09472)
- Sequence (Q09472 1049-1156 limits assumed): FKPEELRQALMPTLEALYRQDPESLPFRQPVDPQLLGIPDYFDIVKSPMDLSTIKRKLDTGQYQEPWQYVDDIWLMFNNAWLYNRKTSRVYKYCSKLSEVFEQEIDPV
- measurement.description: BROMOscan ligand-binding assay
- recorded.conditions: KD, EP300
pKd: −log10 of the molar value.
measured.attribute: pKd

compound: O=C(O)c1ccccc1O
measured.on: EP300 (Homo sapiens, UniProt Q09472)
measured.attribute: pKd
result: < 1.85
//
compound: CCC(=O)N1CCOc2c(cc(-c3ccc(OC)c(OC)c3)cc2OCC2CCCN(C)C2)C1 (stereo not drawn)
measured.on: EP300 (Homo sapiens, UniProt Q09472)
measured.attribute: pKd
result: 6.92
//
compound: O=C(C=CN1CC2CC1CN2c1ccccn1)c1ccccc1O (stereo not drawn)
measured.on: EP300 (Homo sapiens, UniProt Q09472)
measured.attribute: pKd
result: < 4.00

----------
- measured.on: UniProt P51532
- Sequence (P51532 1453-1564 limits assumed): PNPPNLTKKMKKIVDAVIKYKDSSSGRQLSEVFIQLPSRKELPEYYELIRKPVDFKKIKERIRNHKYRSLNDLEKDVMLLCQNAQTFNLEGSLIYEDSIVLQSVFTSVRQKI
- measurement.description: BROMOscan ligand-binding assay
- recorded.conditions: KD (BROMOscan), sheet prints no unit (nM)

molecule: CCC(=O)N1CCOc2c(cc(-c3ccc(OC)c(OC)c3)cc2OCC2CCCN(C)C2)C1 (centres unmarked)
measured.on: UniProt P51532
Kd: > 30000 nM

molecule: CCCOc1ccn2c(C(C)=O)cc(-c3ccccc3S(C)(=O)=O)c2c1
measured.on: UniProt P51532
Kd: > 30000 nM

----------
- measured.on: BRD8(2) (Homo sapiens, UniProt Q9H0E9)
- Sequence (Q9H0E9 1099-1207 limits assumed): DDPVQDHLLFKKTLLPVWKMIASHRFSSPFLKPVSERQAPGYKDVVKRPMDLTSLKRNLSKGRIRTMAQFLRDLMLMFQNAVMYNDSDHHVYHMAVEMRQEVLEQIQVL
- measurement.description: BROMOscan ligand-binding assay
- recorded.conditions: read-out: KD (BROMOscan); sheet prints no unit (nM)

compound: COc1cc2c(cc1NS(=O)(=O)c1ccc(Br)cc1C)n(C)c(=O)n2C
Kd: > 30000 nM

----------
As shown below, each of these compounds has a reported inhibition at 10 µM value.
- measured.on: PRMT6 (Homo sapiens, UniProt Q96LA8)
- Construct: purchased DiscoverX BROMOscan (bromodomains); SGC in-house methyltransferase panel
- Sequence (Q96LA8 whole entry): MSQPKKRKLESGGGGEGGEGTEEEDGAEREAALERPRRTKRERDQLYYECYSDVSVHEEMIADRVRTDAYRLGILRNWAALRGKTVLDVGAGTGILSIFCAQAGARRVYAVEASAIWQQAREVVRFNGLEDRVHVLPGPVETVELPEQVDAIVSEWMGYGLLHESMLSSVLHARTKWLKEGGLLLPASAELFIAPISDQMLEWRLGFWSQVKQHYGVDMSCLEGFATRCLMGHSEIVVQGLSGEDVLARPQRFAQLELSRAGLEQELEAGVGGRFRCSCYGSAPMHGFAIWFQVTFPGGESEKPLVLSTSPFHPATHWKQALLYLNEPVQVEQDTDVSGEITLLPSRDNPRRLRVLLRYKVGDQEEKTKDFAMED
- measurement.description: Methyl transferase scintillation proximity assay
- Assay type: biochemical
- recorded.conditions: average of two measurements, read-out: MTases Inhibition (%)

compound: CO[C@H]1CNC[C@@H](OCC2CCC(F)(F)CC2)[C@@H]1Nc1ncc(-c2cncc(C)c2)c2cc(C)c(=O)[nH]c12
inhibition at 10 µM (%): 0
--
compound: Cc1nnc2c3ccccc3c(N[C@@H](C)[C@H](c3ccccc3)N(C)C)nn12
inhibition at 10 µM (%): 5
--
compound: Cc1c(NC(=O)c2cc(C(N)=O)nc3cc(F)ccc23)c(C(F)(F)F)nn1Cc1ccc(C(C)(C)C)cc1
inhibition at 10 µM (%): 4
--
compound: CN(C)CCCOc1ccc(-c2cc(NCCCn3cccn3)nc(S(C)(=O)=O)n2)cc1
inhibition at 10 µM (%): 6
--
compound: Cc1c(NC(=O)c2cc(C(N)=O)nc3cc(F)ccc23)c(C(F)(F)F)nn1Cc1ccc(C#N)cc1
inhibition at 10 µM (%): -3
--
compound: COc1cc(Cl)c(C(=O)N[C@@H](CN[C@H]2CC[C@@H](N)CC2)Cc2ccc(C#N)cc2)cc1-c1ccc(CN[C@H](C)c2ccc(C)cc2)o1
inhibition at 10 µM (%): 13
--
compound: CN1C[C@H](Nc2cnn(C)c(=O)c2Br)C[C@H](c2ccccc2)C1
inhibition at 10 µM (%): 6

Values were extracted from paper PMC6478789.
